Can you tell me GI50 for the items I'm about to list?
- Tested on: UACC-62
- assay: NCI tumour cell line growth inhibition, 48 h
Active and inactive are the calls of the source. No stated cut-off is given here; in the data, active = GI50 up to about 1.1 µM and inactive = higher. Square brackets hold non-standard residues; d marks the D form. Peptide text beside a SMILES is read from it. 2Nal = N[CH](Cc1ccc2ccccc2c1)C(=O)O

* Cc1ccc(NC(=O)NC23CC4CC(CC(F)(C4)C2)C3)cc1 | 69.3 µM (inactive)
* Cc1ccc(NC(=O)CC/C(CC(=O)C(C)(C)C)=N\Nc2ccc([N+](=O)[O-])cc2[N+](=O)[O-])cc1C | 32.2 µM (inactive)
* Nc1nc(Cl)cc(NCC2(CO)CCC(CCc3ccccc3)C2)n1 (stereo not given) | 13.2 µM (inactive)

Batch of 3 compounds: report GI50 for each.
1. COc1cccc(N[C@@H]2c3cc4c(cc3C(c3cc(OC)c(O)c(OC)c3)[C@H]3C(=O)OCC32)OCO4)c1 (stereo not given in full)
2. CCN(CC)/[N+]([O-])=N/OCOC
3. CC1=C(C(=O)Nc2cccc3c2C(=O)NC3=O)CC(C(=O)Nc2cccc3c2C(=O)NC3=O)=C(C)N1

1. 0.24 µM (active)
2. > 100 µM (inactive)
3. > 100 µM (inactive)

For every record below, what is its GI50?
1. CCCCCCCCCCC1OC([C@@H](O)CC[C@H](O)C2CC[C@@H](CCCCCCCC(O)CC3=CC(C)OC3=O)O2)CCC1O (stereo not given in full)
2. CC(C)C(NC(=O)C(CCCCN)NC(=O)C(Cc1c[nH]c2ccccc12)NC(=O)C(Cc1ccc(O)cc1)NC(=O)C(CS)NC(=O)C(N)Cc1ccc2ccccc2c1)C(=O)NC(CS)C(=O)NC(C(N)=O)C(C)O (stereo not given) (H-[2Nal]CYWKVCT-NH2; configuration not given here)
3. C=C(C)C1CC=C(C)C2(C1)OCC(C)(C)C(C)O2 (stereo not given)
4. CCN(CC)CSc1nc2ccccc2s1

1: 4.72 µM (inactive); 2: > 12.5 µM (inactive); 3: 15.8 µM (inactive); 4: > 100 µM (inactive)
